Tested on: 653999-131-R-J2-PDC complex spheroids, growth % test/control;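 also: spheroids exposed to agents for seven days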
PROTOCOL SUMMARY: Anticancer human tumor 653999-131-R-J2-PDC patient-derived lung adenocarcinoma cell line growth inhibition [AhR]
REPORTED CONDITIONS: curve of first compound; second compound 10 µM
ENDPOINT NAME: pIC50
Recall that pIC50 is obtained by taking minus log10 of the concentration measured in molar.

Query: Any idea what its pIC50 is? The molecule is Nc1ccccc1NC(=O)c1ccc(CNC(=O)OCc2cccnc2)cc1 + Cc1ccccc1N=Nc1ccc(NC(=O)c2ccnn2C)c(C)c1
Result: 5.46

Query: Any idea what its pIC50 is? The molecule is COc1cc(C2c3cc4c(cc3C(OC3OC5COC(C)OC5C(O)C3O)C3COC(=O)C23)OCO4)cc(OC)c1O (stereo not drawn) + CC(CO)NC(=O)c1cc(-c2ccc(Cl)cc2)nn(-c2cnn(C)c2)c1=O
Result: 6.07

Query: Any idea what its pIC50 is? The molecule is Nc1ncn(C2CC(O)C(CO)O2)c(=O)n1 (stereo not drawn) + Cc1cncc(-c2nc(NCCc3c[nH]c4ccccc34)c3ncn(C(C)C)c3n2)c1
Result: 6.68

Query: Any idea what its pIC50 is? The molecule is Nc1ccn(C2OC(CO)C(O)C2(F)F)c(=O)n1 (stereo not drawn) + Cc1cncc(-c2nc(NCCc3c[nH]c4ccccc34)c3ncn(C(C)C)c3n2)c1
Result: 6.78

Query: Any idea what its pIC50 is? The molecule is CCN(c1cc(-c2ccc(CN3CCOCC3)cc2)cc(C(=O)NCc2c(C)cc(C)[nH]c2=O)c1C)C1CCOCC1 + Cc1cncc(-c2nc(NCCc3c[nH]c4ccccc34)c3ncn(C(C)C)c3n2)c1
Result: 6.78

Query: Any idea what its pIC50 is? The molecule is CC1COCCN1c1cc(-c2ccnn2C)c2ccnc(-c3ccn[nH]3)c2n1 (stereo not drawn) + CC(CO)NC(=O)c1cc(-c2ccc(Cl)cc2)nn(-c2cnn(C)c2)c1=O
Result: 7.27

Query: Any idea what its pIC50 is? The molecule is CC1COCCN1c1cc(C2(S(C)(=N)=O)CC2)nc(-c2ccnc3[nH]ccc23)n1 (stereo not drawn) + Cc1cncc(-c2nc(NCCc3c[nH]c4ccccc34)c3ncn(C(C)C)c3n2)c1
Result: 5.57

Query: Any idea what its pIC50 is? The molecule is O=C(C=Cc1cccc(S(=O)(=O)Nc2ccccc2)c1)NO + CC(CO)NC(=O)c1cc(-c2ccc(Cl)cc2)nn(-c2cnn(C)c2)c1=O
Result: 5.44

Query: Any idea what its pIC50 is? The molecule is O=C(C=Cc1cccc(S(=O)(=O)Nc2ccccc2)c1)NO + Cc1cncc(-c2nc(NCCc3c[nH]c4ccccc34)c3ncn(C(C)C)c3n2)c1
Result: 5.84

Query: Any idea what its pIC50 is? The molecule is CC1COCCN1c1cc(C2(S(C)(=N)=O)CC2)nc(-c2ccnc3[nH]ccc23)n1 (stereo not drawn) + CC(CO)NC(=O)c1cc(-c2ccc(Cl)cc2)nn(-c2cnn(C)c2)c1=O
Result: 5.40
